# Test system: ACHN renal
# Method: NCI tumour cell line growth inhibition, 48 h; in the data active = GI50 below about 0.43 µM; inactive = the rest
The reply should be one of these categories: Y = active, N = inactive

Example results:
Data request: Name the outcome recorded for Clc1ccc(CN2COc3c(ccc4cccnc34)C2)cc1Cl in the assay.
Data returned: N

Data request: Name the outcome recorded for CCCCCCC/C(=N\N=C(N)N)c1ccc(O)cc1 in the assay.
Data returned: N

Data request: Name the outcome recorded for O=c1c2c3c(sc2n2c(CCl)nnc2n1Cc1ccccc1)CCCC3 in the assay.
Data returned: N

Data request: Name the outcome recorded for Cn1ccnc1C(=O)/C=C/c1ccc(C(=O)Nc2ccccc2F)cc1 in the assay.
Data returned: N

New cases:
Data request: Name the outcome recorded for Cc1ccc(S(=O)(=O)Oc2ccccc2-c2ccccc2)cc1 in the assay.
Data returned: N

Data request: Name the outcome recorded for COc1ccc(NC(=O)c2sc3nc(C)c(C(=O)/C=C/c4ccccc4)cc3c2N)cc1 in the assay.
Data returned: N

====

# Tested on: NCI-H522 lung
# Method: NCI tumour cell line growth inhibition, 48 h; in the data active = GI50 below about 0.43 µM; inactive = the rest
The reply should be one of these categories: true (1) (active), false (0) (inactive)

Example results:
Data request: Name the outcome recorded for N#Cc1ccccc1C#C/C=C\C#Cc1cccs1 in the assay.
Data returned: false (0)

Data request: Name the outcome recorded for NCCOc1ncccc1/C=C1\C2C=CC=CC2C2C=CC(F)=CC12 (centres undefined) in the assay.
Data returned: false (0)

New cases:
Data request: Name the outcome recorded for O=c1c2sc3ccccc3c2nnn1-c1ccc(F)c(Cl)c1 in the assay.
Data returned: false (0)

Data request: Name the outcome recorded for Nc1c(C(=O)Nc2ccccc2)sc2nc3c(cc12)C(O)CCC3 (centres undefined) in the assay.
Data returned: true (1)

====

# Test system: MOLT-4 leukemia
# Method: NCI tumour cell line growth inhibition, 48 h
Quantity name: TGI (µM)
// return numeric value only (unit: µM, not printed)

Data request: Returns the measured TGI for the input compound. Input: CC(C)(C)OC(=O)CCC1NC(=O)[C@@H]2Cc3c([nH]c4ccccc34)C(C3CCCCC3)N2C1=O (stereo not given in full)
Data returned: 61.3

We now examine a further compound.
Data request: Returns the measured TGI for the input compound. Input: CC(C)=CCc1ccc2[nH]c3c(c2c1)C(=O)C(=O)C(C)=C3C(O)C(C)O (stereo not given)
Data returned: 4.83

====

# Tested on: HT29 colon
# Method: NCI tumour cell line growth inhibition, 48 h
Quantity name: TGI

Record excerpt, results attached:
Data request: Returns the measured TGI for the input molecule. Input: C=C[C@@]1(C)CC2(C=C(CO)C(O)O2)Oc2c1c(=O)oc1cccc(C)c21 (some centres undefined)
Data returned: 21.9 µM

Data request: Returns the measured TGI for the input molecule. Input: O=c1[nH]cnc2c1cnn2Cc1cn(COCC(O)CO)nn1 (centres undefined)
Data returned: > 100 µM

Data request: Returns the measured TGI for the input molecule. Input: COC1OC(C)C(OC(=O)C(C)(C)C)C(OS(=O)(=O)c2ccc(C)cc2)C1OS(=O)(=O)c1ccc(C)cc1 (centres undefined)
Data returned: > 100 µM

Data request: Returns the measured TGI for the input molecule. Input: Cc1cc(Br)ccc1NC1=CC(=O)C(=O)c2ccccc21
Data returned: > 100 µM

Data request: Returns the measured TGI for the input molecule. Input: CCN(CC)C(=O)c1c(Cl)cc(N(CC)CC)oc1=O
Data returned: > 100 µM

New cases:
Data request: Returns the measured TGI for the input molecule. Input: CC(=O)CC1(O)C(=O)c2c(Br)sc(Br)c2C1=O
Data returned: 53.8 µM

Data request: Returns the measured TGI for the input molecule. Input: CN(C)c1ccc(/C=C2\N=C(N/N=C/c3ccc(N(C)C)cc3)NC2=O)cc1
Data returned: > 100 µM

Data request: Returns the measured TGI for the input molecule. Input: CN1CCN(Cn2nc(COc3ccc(Cl)cc3)n(/N=C/c3ccc(-c4ccc(Cl)cc4Cl)o3)c2=S)CC1
Data returned: 15.4 µM

Data request: Returns the measured TGI for the input molecule. Input: O=[N+]([O-])[O][Sn]([O][Sn]([O][N+](=O)[O-])([c]1ccccc1)[c]1ccccc1)([c]1ccccc1)[c]1ccccc1
Data returned: > 100 µM
